- subject.of.test: Luciferin 4-monooxygenase (Photinus pyralis)
- test.name: qHTS assay to identify small molecule inhibitors of firefly luciferase (AID 1224835); note: nearly all actives have a fitted effect of over 25% in size
- experimental.conditions: purified P. pyralis luciferase, luminescence inhibition; series mostly up to 115 µM
Inconclusive results are not listed. Active and inactive are the calls of the source. Calls come from the whole dose curve; as a rule, active = well fitted inhibition curve with a large enough effect in the repeat runs; inconclusive = weak or mixed curves; inactive = flat fitted curve, though single readings scatter.
Form entry, call: pick from yes (1) (active), no (0) (inactive)

Reference set, count: 3
CC[C@H](C)COC(=O)/C=C/c1ccc(N=Cc2ccc(OC)cc2)cc1 = yes (1)
Cc1ccc(C)cc1 = no (0)
FC(F)(F)c1cccc(Cl)c1 = no (0)

Outcome logged for COCCOc1cc2cc(C(=O)NC3CCN(C(C)C)CC3)n(CC(=O)Nc3ccc(Cl)cn3)c2cn1 in this assay:
no (0)

Outcome logged for C=Cc1cccc(C)c1 in this assay:
no (0)

Outcome logged for C=CC(=O)Nc1cc2c(Nc3ccc(F)c(Cl)c3)ncnc2cc1OCCCN1CCOCC1 in this assay:
no (0)
